Read-out: Basic fibroblast growth factor (bFGF), FGF2 (gene 2247)
Experiment: BSK_MyoF_bFGF: BioMAP Diversity Plus: MyoF Assay for Basic fibroblast growth factor (bFGF) Biomarker Activity (AID 2284246)
Details: primary human lung fibroblasts
Activity calls are given as the source filed them. The calls were made as follows: active = hit-call score of the fitted dose curve at least 0.9, where 1 is the maximum; inactive = score below 0.9.

| COMPOUND | outcome |
| --- | --- |
| CCOc1nc(F)cc2nc(S(=O)(=O)Nc3c(Cl)cccc3C(=O)OC)nn12 | inactive |
| COc1ccc2nc(N)sc2c1 | inactive |
| CCCCC(CC)COC(=O)c1ccccc1O (stereo not drawn) | inactive |

---

Experiment: ATG_MRE_CIS: Attagene CIS-FACTORIAL HepG2 Assay for human Metal Responsive Element (MRE) (AID 2282954)
Conditions: HepG2 MRE cis-reporter transcription, Attagene multiplex; actives raise or lower the signal
The source made the active and inactive calls. The calls were made as follows: active = hit-call score of the fitted dose curve at least 0.9, where 1 is the maximum; inactive = score below 0.9.
# output must be one of active, inactive

These recorded examples may help you get a feel for the data.
| COMPOUND | CLASSIFICATION |
| --- | --- |
| CC(C)(C)C(=O)CCc1ccc(Cl)cc1 | inactive |
| O=S(=O)(O)c1cc(S(=O)(=O)O)c2ccc3c(S(=O)(=O)O)cc(S(=O)(=O)O)c4ccc1c2c43 | inactive |
| O=S(=O)(O)c1ccc2cc(O)c(S(=O)(=O)O)cc2c1 | active |
| O=C1CCCCCCCCCCCCCCCO1 | active |
| CCCCC(CC)COCC1CO1 (configuration not stated) | inactive |

Enquiry: Recorded test outcome, item CCCCCCOC(=O)C(C)CC (configuration not stated)
Return: inactive

Enquiry: Recorded test outcome, item C=C1[C@H]2CC[C@@H]3[C@H]2C(C)(C)CCC[C@]13C
Return: inactive

Enquiry: Recorded test outcome, item CC(C)(Oc1ccc(C2CC2(Cl)Cl)cc1)C(=O)O (configuration not stated)
Return: inactive

Enquiry: Recorded test outcome, item Cc1ccccc1C
Return: inactive

Enquiry: Recorded test outcome, item CCCCC(CC)CCC(CC(C)C)OS(=O)(=O)O (configuration not stated)
Return: inactive

Enquiry: Recorded test outcome, item O=c1cc[nH]c(=S)[nH]1
Return: inactive

Enquiry: Recorded test outcome, item O=c1[nH]c(=O)c2[nH]c(=O)[nH]c2[nH]1
Return: inactive

Enquiry: Recorded test outcome, item CCCCCCCCCCCSCC(=O)O
Return: active

Enquiry: Recorded test outcome, item CN(C)CCCN(C)C
Return: inactive

Enquiry: Recorded test outcome, item CCCCCCCCCCCCCCCCCC#N
Return: inactive

Enquiry: Recorded test outcome, item COC(=O)c1ccccc1OC
Return: inactive

Enquiry: Recorded test outcome, item CC(=O)[C@H]1[C@H](C#N)C[C@H]2[C@@H]3CC=C4C[C@@H](O)CC[C@]4(C)[C@H]3CC[C@@]21C
Return: inactive

Enquiry: Recorded test outcome, item C=C[C@](C)(O)CC[C@@H]1[C@@]2(C)CCCC(C)(C)[C@@H]2CC[C@@]1(C)O
Return: inactive

Enquiry: Recorded test outcome, item Cn1c(=O)[nH]c2ncn(C)c2c1=O
Return: inactive

Enquiry: Recorded test outcome, item CC=CCO
Return: inactive

Enquiry: Recorded test outcome, item Cc1oncc1C(=O)Nc1ccc(C(F)(F)F)cc1
Return: inactive

Enquiry: Recorded test outcome, item CCN(Cc1cccc(S(=O)(=O)O)c1)c1ccc(C(=C2C=CC(=[N+](CC)Cc3cccc(S(=O)(=O)[O-])c3)C=C2)c2ccccc2)cc1
Return: inactive

Enquiry: Recorded test outcome, item CCOc1nc(F)cc2nc(S(=O)(=O)Nc3c(Cl)cccc3C(=O)OC)nn12
Return: inactive

Enquiry: Recorded test outcome, item CCOC(=O)CC(C(C)=O)C(C)=O
Return: inactive

Enquiry: Recorded test outcome, item C=CCOc1c(Br)cc(Br)cc1Br
Return: inactive

Data provenance is PubChem BioAssay (EPA / NIEHS).
